# IC50 values compiled below
Test: Inhibition of Human immunodeficiency virus 1 3B envelope glycoprotein-mediated cell-cell fusion of infected H9 cells to human MT2 cells measured 2 hrs after wash out by fluorescence analysis
Type: cell-based
Conditions: MT2, 2 h
Peptide text beside a SMILES is read from it.
Kindly provide the numeric value in µM only, without the unit symbol.

CC(C)C[C@@H]1NC(=O)[C@H](Cc2ccccc2)NC(=O)[C@H](C(C)C)NC(=O)[C@H](Cc2ccccc2)NC(=O)[C@@H]2CCCN2C(=O)[C@H](CS)NC(=O)[C@H](CCCNC(=N)N)NC1=O (cyclo(CPFVFLR)) = 74
CC(C)C[C@@H]1NC(=O)[C@H](Cc2ccccc2)NC(=O)[C@H](C(C)C)NC(=O)[C@H](Cc2ccccc2)NC(=O)[C@@H]2CCCN2C(=O)[C@H](CS)NC(=O)[C@H](CCC(=O)O)NC1=O (cyclo(CPFVFLE)) = 116

Moving on to the next molecule.
Incoming: Determine its reported IC50: CSCC[C@@H]1NC(=O)[C@H](CC(C)C)NC(=O)[C@H](Cc2ccccc2)NC(=O)[C@H](C(C)C)NC(=O)[C@H](Cc2ccccc2)NC(=O)[C@@H]2CCCN2C(=O)[C@H](CS)NC1=O (cyclo(CPFVFLM))
Outgoing: 67.2
